What TGI was measured for each of the following?
test system: MALME-3M melanoma; assay: NCI tumour cell line growth inhibition, 48 h

Field TGI (system: MALME-3M melanoma) for entry CCOC(=O)/C=C(/C(=O)OCC)n1ccc(=O)n(CC(=O)OCC)c1=O = 1.71 µM

Field TGI (system: MALME-3M melanoma) for entry CC(=O)OCCCCn1cnc2c(Cl)nc(Nc3ccccc3)nc21 = > 100 µM

Field TGI (system: MALME-3M melanoma) for entry COc1ccc(NS(=O)(=O)c2ccc(N=C3C=C(Nc4ccc(S(=O)(=O)Nc5ccc(OC)nn5)cc4)C(=O)c4ccccc43)cc2)nn1 = 33.1 µM

Field TGI (system: MALME-3M melanoma) for entry [N-]=[N+]=NC1C2CC3CC(C2)CC1C3 (centres undefined) = > 100 µM

Field TGI (system: MALME-3M melanoma) for entry COc1ccc(OCC(C)(C)O)cc1 = > 100 µM

Field TGI (system: MALME-3M melanoma) for entry Clc1nc(Nc2nc3ccccc3[nH]2)nc(Cl)c1-c1ccccc1 = 38.6 µM

Field TGI (system: MALME-3M melanoma) for entry CCN(CC)c1ccc(/C=N/NC(=O)c2ccccc2Nc2ccnc(C(F)(F)F)c2)c(O)c1 = 5.17 µM

Field TGI (system: MALME-3M melanoma) for entry COC1C(OC(C)=O)CC(=O)OC(C)C/C=C/C=C\C(O)C(C)CC(CC=O)C1OC1OC(C)C(OC2CC(C)(O)C(OC(=O)CC(C)C)C(C)O2)C(N(C)C)C1O (centres undefined) = > 100 µM

Field TGI (system: MALME-3M melanoma) for entry CC(C)(C)OC(=O)N1CCC(NC(=O)NC2CCN(C(=O)OC(C)(C)C)CC2)CC1 = > 100 µM
